- experimental target: GCase (Homo sapiens, UniProt P04062)
- Construct: endogenous in cells; host or cells: HeLa cells
- Sequence (P04062 40-536): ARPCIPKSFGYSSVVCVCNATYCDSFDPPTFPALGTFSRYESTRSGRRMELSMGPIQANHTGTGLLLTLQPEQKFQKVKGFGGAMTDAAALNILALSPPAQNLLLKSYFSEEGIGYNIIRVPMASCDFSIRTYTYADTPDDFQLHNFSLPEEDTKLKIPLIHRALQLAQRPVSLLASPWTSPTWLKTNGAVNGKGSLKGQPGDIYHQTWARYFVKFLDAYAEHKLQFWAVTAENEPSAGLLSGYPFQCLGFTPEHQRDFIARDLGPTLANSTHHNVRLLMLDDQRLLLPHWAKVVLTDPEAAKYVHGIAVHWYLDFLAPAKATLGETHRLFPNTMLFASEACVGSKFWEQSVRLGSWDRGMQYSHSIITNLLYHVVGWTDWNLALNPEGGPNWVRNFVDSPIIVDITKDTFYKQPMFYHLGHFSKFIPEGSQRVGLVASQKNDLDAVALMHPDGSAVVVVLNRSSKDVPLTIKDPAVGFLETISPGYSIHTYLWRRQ
- assay info: activation of GCase in a live cell PFB assay in HELA cells
- Assay type: cell-based
- measurement setup: activation of GCase, EC50 ranges
Here the recorded EC50 is given for each entry.

molecule: O=C1CC2(CCN(c3cnc4cnn(CC(F)F)c4n3)CC2)C(CC(F)F)N1c1ccnc(C(F)(F)F)c1 (centres unmarked)
experimental result: < 10 µM

Lab book: EC50 of CCC1N(c2cc(C(F)(F)F)ccn2)C(=O)CC12CCN(c1cnc3cnn(CC(F)F)c3n1)CC2 (centres unmarked) noted as 10 to 50 µM

Lab book: EC50 of O=C1CC2(CCN(c3cnc4cnn(CC(F)F)c4n3)CC2)CN1Cc1cncc(C(F)(F)F)c1 noted as 10 to 50 µM

Lab book: EC50 of O=C1CC2(CN1c1cc(C(F)(F)F)ccn1)C1CCC2CN(c2cnc3cnn(CC(F)F)c3n2)C1 (centres unmarked) noted as 10 to 50 µM

Lab book: EC50 of CCn1c(=O)n(CC(F)F)c2nc(N3CCC4(CC3)CCN(c3cnc(C(F)(F)F)nc3C)C4)cnc21 noted as < 10 µM

Lab book: EC50 of Fc1cc(N2CCC3(CCN(c4cnc5cnn(CC(F)F)c5n4)CC3)C2)cnc1C(F)(F)F noted as < 10 µM

Lab book: EC50 of FC(F)(F)COc1cncc(N2CCC3(CCN(c4ccc(C(F)(F)F)nc4)C3)CC2)n1 noted as < 10 µM

Lab book: EC50 of O=C1CC2(CCN(c3cnc4cnn(CC(F)F)c4n3)CC2)CN1c1cncc(C(F)(F)F)n1 noted as < 10 µM
